assay: NCI Yeast Anticancer Drug Screen. Data for the sgs1 mgt1 strain (AID 161);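 also: 0% = growth of cultures given vehicle only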; conditions: S. cerevisiae sgs1 mgt1 strain, at 50.0 µM (retest, dose inferred, filed as 5.0), hits give high values
This is part of a sample that, as a whole, favours compounds with a hit. Of some 79,000 tested, about 15% had one in any assay.
growth inhibition by entry:
The reply should contain only the number, in %.

Measured growth inhibition, O=Cc1ccc(O)c(O)c1O : 35

More entries:
Measured growth inhibition, CCOc1cc2c(cc1O)/C(=N\OC)C[C@@H]1[C@@H]2CC[C@]2(C)[C@@H](O)CC[C@@H]12 : 86

###

growth inhibition by entry:
experiment: NCI Yeast Anticancer Drug Screen. Data for the sgs1 mgt1 strain (AID 161);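 also: 0% = growth of cultures given vehicle only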; conditions: S. cerevisiae sgs1 mgt1 strain, at 5.0 µM (retest, dose inferred, filed as 0.5), hits give high values
Compounds without any hit were thinned out: in the full panel of roughly 79,000, 15% have a hit. The source made the active and inactive calls. No stated cut-off is given here; in the data, active means growth inhibition above about 70%; inactive means the rest.

Known results for compounds:
Measured growth inhibition, CC(C)(C)C(=O)CC(c1ccccc1)c1ccccc1 : 5% (inactive)

Measured growth inhibition, CC1=CC[C@@H]2[C@@H](CC[C@@]2(C)O)C(C)(C)[C@H]1CC[C@@H]1[C@@]2(C)CCC(=O)C(C)(C)O[C@@H]2CC[C@]1(C)O : -1% (inactive)

Measured growth inhibition, CSC(SC)=C(C#N)C(=O)Nc1cccc(Cl)c1 : 65% (inactive)

Measured growth inhibition, O=C1C=Cc2ccccc2/C1=C/c1nc(-c2ccccc2)oc1O : 17% (inactive)

Measured growth inhibition, CC1=C(Cl)C[C@@H](/C(C)=C\Cl)O[C@@]1(O)C(Br)Br : 40% (inactive)

Measured growth inhibition, O=Cc1ccc(-c2ccc(-c3ccc(CO)s3)o2)s1 : 5% (inactive)

Measured growth inhibition, COc1cccc(N=N/C(=N\NC(=O)c2cc(Br)ccc2O)c2ccc(N(CCC#N)CCC#N)cc2OC)c1 : -8% (inactive)

Measured growth inhibition, OC(c1cc(-c2ccc(Cl)cc2)nc2c(Cl)cccc12)C1CCCCN1 (stereo not drawn) : 93% (active)

Proceeding to the next compound to report its growth inhibition.
Measured growth inhibition, C=C1C(=O)OC2CC1C(OC(=O)/C=C/c1ccccc1)C/C(C)=C/CC/C(C)=C/CCC2(C)O (stereo not drawn) : 60% (inactive)

###

assay: NCI Yeast Anticancer Drug Screen. Data for the sgs1 mgt1 strain (AID 161);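 also: 0% = growth of cultures given vehicle only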; conditions: S. cerevisiae sgs1 mgt1 strain, at 50.0 µM
This is part of a sample that, as a whole, favours compounds with a hit. Of some 79,000 tested, about 15% had one in any assay. Activity calls are given as the source filed them. No stated cut-off is given here; in the data, active means growth inhibition above about 70%; inactive means the rest.
Outcomes you can answer with include only these: active, inactive

Would you please look over these solved cases?
QUERY: Status in this test for CCCCCC/C=C1\CCC(CN2CCCC2)C1=O (stereo not given) ?
RESULT: active

QUERY: Status in this test for CC(C)(C)N/N=C(/Cc1nc2c3c(ccc2[nH]c1=O)C(=O)c1ccccc1C3=O)C(=O)NC1=C(Cl)C(=O)c2ccccc2C1=O ?
RESULT: inactive

QUERY: Status in this test for O=C(O)c1cccc2cccc(-c3c4ccc(=O)c(O)c-4oc4c(O)c(O)ccc34)c12 ?
RESULT: active

QUERY: Status in this test for CC1(C)CCC[C@]2(C)[C@@H](C=O)C(C=O)=CC[C@@H]12 ?
RESULT: active

Consider the additional compound presented here.
QUERY: Status in this test for CC1=C(Cl)C[C@@H](/C(C)=C\Cl)O[C@@]1(O)C(Br)Br ?
RESULT: active
